Entries annotated with measured Ki
Target: Neurotensin receptor type 2 (Homo sapiens, UniProt O95665)
Sequence (O95665 whole entry): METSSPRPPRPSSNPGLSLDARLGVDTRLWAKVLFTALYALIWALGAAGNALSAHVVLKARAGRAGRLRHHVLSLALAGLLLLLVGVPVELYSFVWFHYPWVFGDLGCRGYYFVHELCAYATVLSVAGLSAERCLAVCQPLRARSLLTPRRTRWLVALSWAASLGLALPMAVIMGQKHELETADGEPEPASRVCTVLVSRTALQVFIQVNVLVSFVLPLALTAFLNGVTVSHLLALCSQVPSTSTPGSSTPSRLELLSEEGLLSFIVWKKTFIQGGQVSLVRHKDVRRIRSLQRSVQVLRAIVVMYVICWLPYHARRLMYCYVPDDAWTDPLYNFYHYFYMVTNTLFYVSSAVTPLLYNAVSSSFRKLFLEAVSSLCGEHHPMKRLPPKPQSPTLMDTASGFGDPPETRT
Assay: Displacement of 125I-[Tyr3]-NT from human NTS2 receptor expressed in human 1321N1 cell membranes after 30 mins by gamma counting analysis
experimental.readout: Ki (nM)

substance: H-KKPHIL-OH
experimental.readout: Ki
numeric.value: 474

substance: H-KKPKIL-OH
experimental.readout: Ki
numeric.value: 262

substance: H-KKPEIL-OH
experimental.readout: Ki
numeric.value: 1600

substance: H-KKPDIL-OH
experimental.readout: Ki
numeric.value: 4200

###

Target: UniProtKB O95665
Assay: Displacement of 125I-[Tyr3]-NT from human NTS2 receptor

mol: CC[C@H](C)[C@H](NC(=O)[C@H](Cc1ccc(O)cc1)NC(=O)[C@@H]1CCCN1C(=O)[C@H](CCCCN)NC(=O)[C@@H](N)CCCCN)C(=O)N[C@@H](CC(C)C)C(=O)O
Ki / nM: 0.95

###

Molecular target: Neurotensin receptor type 1 (Homo sapiens)
Sequence (P30989 whole entry): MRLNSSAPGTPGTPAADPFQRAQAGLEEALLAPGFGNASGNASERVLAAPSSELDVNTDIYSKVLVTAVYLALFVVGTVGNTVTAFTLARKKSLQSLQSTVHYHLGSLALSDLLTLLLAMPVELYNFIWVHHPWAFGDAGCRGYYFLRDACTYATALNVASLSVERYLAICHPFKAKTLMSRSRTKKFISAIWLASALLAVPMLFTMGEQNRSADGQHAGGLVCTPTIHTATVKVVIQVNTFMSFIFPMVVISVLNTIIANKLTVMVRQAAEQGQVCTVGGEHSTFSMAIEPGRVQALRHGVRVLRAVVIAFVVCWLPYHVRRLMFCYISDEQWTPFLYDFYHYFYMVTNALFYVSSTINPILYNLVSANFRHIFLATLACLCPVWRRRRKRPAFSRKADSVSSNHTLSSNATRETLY
Test: Displacement of 125I-[Tyr3]-NT from human NTS1 receptor expressed in CHOK1 cell membranes after 30 mins by gamma counting analysis
pKi: −log10 of the molar value.
experimental.readout: pKi

substance: H-KKPEIL-OH
prefix.operator: <
numeric.value: 5.00

substance: H-KKPDIL-OH
prefix.operator: <
numeric.value: 5.00

substance: H-KKPHIL-OH
prefix.operator: =
numeric.value: 6.34

substance: H-KKPKIL-OH
prefix.operator: =
numeric.value: 5.24

###

Target: Neurotensin receptor type 2 (Homo sapiens, UniProt O95665)
Assay: Displacement of 125I-[Tyr3]-NT from human NTS2 receptor expressed in human 1321N1 cell membranes after 30 mins by gamma counting analysis
pKi: −log10 of the molar value. Square brackets hold non-standard residues; d marks the D form. Peptide text beside a SMILES is read from it. ξ: configuration not given here. ξOrn = NCCCC(N)C(=O)O
Entries annotated with measured pKi

compound: CC[C@H](C)[C@H](NC(=O)C(CCCN)NC(=O)[C@@H]1CCCN1C(=O)[C@H](CCCCN)NC(=O)[C@@H](N)CCCCN)C(=O)N[C@@H](CC(C)C)C(=O)O (some centres not stated) (H-KKP[ξOrn]IL-OH)
study.target: Neurotensin receptor type 2 (Homo sapiens, UniProt O95665)
pKi: 6.21

compound: CC[C@H](C)[C@H](NC(=O)[C@H](CCCCN)NC(=O)[C@@H]1CCCN1C(=O)[C@H](CCCCN)NC(=O)[C@@H](N)CCCCN)C(=O)N[C@H](C[Si](C)(C)C)C(=O)O
study.target: Neurotensin receptor type 2 (Homo sapiens, UniProt O95665)
pKi: 7.17

###

Listed here: molecules with reported Ki for Neurotensin receptor type 1 (Homo sapiens, UniProt P30989).
Square brackets hold non-standard residues; d marks the D form. Peptide text beside a SMILES is read from it. ξ: configuration not given here. ξOrn = NCCCC(N)C(=O)O

molecule: CC[C@H](C)[C@H](NC(=O)[C@H](CCCCN)NC(=O)[C@@H]1CCCN1C(=O)[C@H](CCCCN)NC(=O)[C@@H](N)CCCCN)C(=O)N[C@@H](C[Si](C)(C)C)C(=O)O
units.of.measure: µM
prefix.operator: =
Ki: 0.663

molecule: CC[C@H](C)[C@H](NC(=O)C(CCCN)NC(=O)[C@@H]1CCCN1C(=O)[C@H](CCCCN)NC(=O)[C@@H](N)CCCCN)C(=O)N[C@@H](CC(C)C)C(=O)O (some centres not stated) (H-KKP[ξOrn]IL-OH)
units.of.measure: µM
prefix.operator: >
Ki: 10
